Task for the reader: assign each of the following compounds its reported Relative Selectivity versus PI3Kalpha.
Biological target: PI3K-alpha (Homo sapiens (Human))
Assay: HTRF PI3K biochemical assay, alpha isoform
Settings: ratio PI3K-alpha IC50 value/PI3K-delta IC50 value
Description: HTRF PI3K Biochemical Assay to Measure Intrinsic Potency of Compound Inhibitors The PI3-Kinase biochemical assays were developed to measure the intrinsic potency and compound dependent inhibition of the alpha, beta, delta, and gamma PI3K isoform enzymes. […] In the absence of PIP3, an HTRF (Homogeneous Time-Resolved Fluorescence energy transfer) complex is formed consisting of europium (Eu)-labeled anti-GST, GST tagged GRP1-PH domain, biotin-PIP3 and streptavidin conjugated APC. […]

Given CCn1ncc(-c2nc3c(S(=O)(=O)[C@H]4CCN(C(=O)C5CCOCC5)C4)ncnc3n2C)c1C , respond with its Relative Selectivity versus PI3Kalpha.
5

Please list Relative Selectivity versus PI3Kalpha recorded for the compound CCn1c(-c2ccc(C(F)(F)F)nc2)nc2c(O[C@H]3CCN(C(=O)C4CC4)C3)ncnc21
>10

Fill in reported Relative Selectivity versus PI3Kalpha for this entry: CCn1ncc(-c2nc3c(O[C@H]4CCN(c5ncnc6ccsc56)C4)ncnc3n2C)c1C
>10

Specify Relative Selectivity versus PI3Kalpha for CCn1c(-c2cnc(C)nc2)nc2c(O[C@H]3CCN(C(=O)C4[C@@H](C)[C@@H]4C)C3)ncnc21 (stereo partly shown) and stop.
>10

Look up Relative Selectivity versus PI3Kalpha of CCn1ncc(-c2nc3c(O[C@@H]4CCCN(C(=O)OC(C)(C)C)C4)ncnc3n2C)c1C and report it.
>2

Provide only the value of recorded Relative Selectivity versus PI3Kalpha for CCn1c(-c2cnc(C)nc2)nc2c(OC3CCN(C(=O)N(C)c4ccccc4)CC3)ncnc21
>10

Note Relative Selectivity versus PI3Kalpha for the compound shown: CCC(=O)N1CC[C@H](Oc2ncnc3c2nc(-c2cnc(C(C)(C)C)s2)n3C)C1
>10

----------
Molecular target: PI3K-alpha (Homo sapiens (Human))
Assay: HTRF PI3K biochemical assay, alpha isoform
Details: ratio PI3K-alpha IC50 value/PI3K-delta IC50 value
Exercise: for every item that follows, state its recorded Relative Selectivity versus PI3Kalpha.

Quick one: give measured Relative Selectivity versus PI3Kalpha for CCn1c(-c2cnc(C)nc2)nc2c(O[C@H]3CCN(C(=O)N4CCC4C)C3)ncnc21 (single isomer, unassigned) [Compound 5-15]
>10

Write down Relative Selectivity versus PI3Kalpha measured for item CCn1c(-c2cnc(C)nc2)nc2c(O[C@H]3CCN(C(=O)N4C5CCC4CC5)C3)ncnc21 [Compound 5-24]
>10

Report Relative Selectivity versus PI3Kalpha for Cn1cnc2c(O[C@H]3CCN(C(=O)OC(C)(C)C)C3)ncnc21 [Compound 1-32]
>7

Complete the entry with Relative Selectivity versus PI3Kalpha for CCn1ncc(-c2nc3c(O[C@H]4CCN(C(=O)c5nc6cc(Cl)ccn6n5)C4)ncnc3n2C)c1C [Compound 2-47]
1

Indicate its recorded Relative Selectivity versus PI3Kalpha; the compound in question is CCn1ncc(-c2nc3c(O[C@H]4CCN(C(=O)C5CCOC(C)(C)C5)C4)ncnc3n2C)c1C (stereo partly shown) [Compound 2-24]
>10

State its Relative Selectivity versus PI3Kalpha for this compound: CCn1c(-c2cnc(C)nc2)nc2c(OC3CN(C(=O)C4CC4)CC3CF)ncnc21 (single isomer, unassigned) [Compound 3-69]
>10

Complete the entry with Relative Selectivity versus PI3Kalpha for CCn1c(-c2cnc(C)nc2)nc2c(O[C@H]3CCN(c4ccccc4C)C3)ncnc21 [Compound 7-16]
>10

----------
Exercise: state measured Relative Selectivity versus PI3Kalpha for each of the molecules provided.
Target: PI3K-alpha (Homo sapiens (Human), UniProt P42336)
Sequence (P42336 whole entry, looked up, canonical isoform): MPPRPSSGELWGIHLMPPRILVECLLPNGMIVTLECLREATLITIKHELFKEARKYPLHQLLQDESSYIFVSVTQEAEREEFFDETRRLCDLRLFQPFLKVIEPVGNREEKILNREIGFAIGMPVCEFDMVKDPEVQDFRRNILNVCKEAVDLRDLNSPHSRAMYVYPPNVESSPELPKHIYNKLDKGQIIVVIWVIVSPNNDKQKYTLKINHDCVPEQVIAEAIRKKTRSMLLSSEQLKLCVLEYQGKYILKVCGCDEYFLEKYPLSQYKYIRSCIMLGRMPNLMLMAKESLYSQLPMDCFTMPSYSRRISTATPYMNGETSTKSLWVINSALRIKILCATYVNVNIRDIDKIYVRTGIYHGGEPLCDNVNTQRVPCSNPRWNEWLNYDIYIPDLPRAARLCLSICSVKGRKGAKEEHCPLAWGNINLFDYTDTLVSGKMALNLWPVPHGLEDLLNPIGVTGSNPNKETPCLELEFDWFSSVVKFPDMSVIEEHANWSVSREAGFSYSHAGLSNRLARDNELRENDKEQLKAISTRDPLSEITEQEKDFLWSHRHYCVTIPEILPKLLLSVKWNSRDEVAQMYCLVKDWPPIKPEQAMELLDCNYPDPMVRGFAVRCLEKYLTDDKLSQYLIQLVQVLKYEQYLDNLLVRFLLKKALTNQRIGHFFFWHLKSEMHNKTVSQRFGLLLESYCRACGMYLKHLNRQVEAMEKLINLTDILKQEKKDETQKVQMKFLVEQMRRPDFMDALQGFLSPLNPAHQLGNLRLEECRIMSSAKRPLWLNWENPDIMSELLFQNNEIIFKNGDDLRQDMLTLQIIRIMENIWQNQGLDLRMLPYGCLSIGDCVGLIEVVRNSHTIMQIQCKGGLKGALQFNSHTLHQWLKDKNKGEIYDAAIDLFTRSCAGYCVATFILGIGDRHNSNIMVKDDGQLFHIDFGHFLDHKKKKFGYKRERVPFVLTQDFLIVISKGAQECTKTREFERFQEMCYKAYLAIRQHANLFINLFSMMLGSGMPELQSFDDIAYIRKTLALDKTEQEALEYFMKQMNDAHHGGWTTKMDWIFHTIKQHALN
Sequence (P27986 whole entry partner, looked up, canonical isoform): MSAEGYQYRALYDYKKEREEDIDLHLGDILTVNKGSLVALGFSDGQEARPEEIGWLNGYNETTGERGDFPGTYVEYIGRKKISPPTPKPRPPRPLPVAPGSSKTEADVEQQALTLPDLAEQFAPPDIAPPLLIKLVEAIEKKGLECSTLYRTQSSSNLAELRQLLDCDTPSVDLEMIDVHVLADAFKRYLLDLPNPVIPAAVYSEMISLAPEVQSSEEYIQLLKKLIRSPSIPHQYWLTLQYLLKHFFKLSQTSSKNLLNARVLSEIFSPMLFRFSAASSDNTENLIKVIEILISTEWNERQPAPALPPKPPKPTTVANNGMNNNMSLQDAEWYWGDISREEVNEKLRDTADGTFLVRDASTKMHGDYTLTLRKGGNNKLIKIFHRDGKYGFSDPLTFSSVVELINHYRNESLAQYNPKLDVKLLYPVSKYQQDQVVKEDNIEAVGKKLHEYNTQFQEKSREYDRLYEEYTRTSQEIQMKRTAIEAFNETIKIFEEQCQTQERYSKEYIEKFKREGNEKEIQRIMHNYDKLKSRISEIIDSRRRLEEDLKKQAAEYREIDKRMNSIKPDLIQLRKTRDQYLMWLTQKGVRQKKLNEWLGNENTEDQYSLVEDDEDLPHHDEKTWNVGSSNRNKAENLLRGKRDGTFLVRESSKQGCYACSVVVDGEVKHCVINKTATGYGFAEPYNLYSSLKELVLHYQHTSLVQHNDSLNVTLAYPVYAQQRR
Assay: HTRF PI3K biochemical assay, alpha isoform
Details: ratio PI3K-alpha IC50 value/PI3K-delta IC50 value

For the molecule CCn1ncc(-c2nc3c(OC4CCC(NC(=O)C5CCOCC5)C4)ncnc3n2C)c1C (stereo not shown) , report Relative Selectivity versus PI3Kalpha.
8

Query Relative Selectivity versus PI3Kalpha for CCn1c(-c2cnc(C)nc2)nc2c(O[C@H]3CCN(C(=O)C4CC45CCCC5)C3)ncnc21 (single isomer, unassigned) [Compound 2-122]
>10

Output Relative Selectivity versus PI3Kalpha of CCn1c(-c2cnc(C)nc2)nc2c(OC3CN(C(=O)C4CC4)CC3O)ncnc21 (single isomer, unassigned)
>10

Supply Relative Selectivity versus PI3Kalpha value. Item: CCC(=O)N1CC[C@H](Oc2ncnc3c2nc(C(F)(F)F)n3CC)C1
>10

Write down Relative Selectivity versus PI3Kalpha measured for item CCn1c(-c2cnc(OC)c(F)c2)nc2c(O[C@H]3CCN(C(=O)C4CC(F)(F)C4)C3)ncnc21
>10

Please list Relative Selectivity versus PI3Kalpha recorded for the molecule CCn1c(-c2cnc(C)nc2)nc2c(O[C@H]3CCN(C(=O)C4C(C)C4C)C3)ncnc21 (stereo partly shown)
>10

Using the record for CCn1ncc(-c2nc3c(OC4CCN(C(=O)C5CCOCC5)CC4)ncnc3n2C)c1C , state its measured Relative Selectivity versus PI3Kalpha.
2

----------
Assignment: determine reported Relative Selectivity versus PI3Kalpha for the given molecules.
Target: UniProt P42336
Experiment: HTRF PI3K biochemical assay, alpha isoform
Settings: ratio PI3K-alpha IC50 value/PI3K-delta IC50 value

Kindly indicate its recorded Relative Selectivity versus PI3Kalpha. Item: CCC(=O)N1CC[C@H](Oc2ncnc3c2nc(-c2ccc4[nH]ncc4c2)n3C)C1 [Compound 3-5]
>10

Retrieve Relative Selectivity versus PI3Kalpha measured for CCn1c(-c2cnc(C)nc2)nc2c(O[C@H]3CCN(c4cnccn4)C3)ncnc21 [Compound 7-26] and print it.
>10

Give me measured Relative Selectivity versus PI3Kalpha, please, for this molecule: CCn1ncc(-c2nc3c(O[C@H]4CCN(C(=O)c5ccc(N6CCN(C)CC6)cc5)C4)ncnc3n2C)c1C [Compound 2-21]
1

Return the recorded Relative Selectivity versus PI3Kalpha value; entry: COc1ncc(-c2nc3c(O[C@H]4CCN(C(=O)OC(C)(C)C)C4)ncnc3n2C)cc1C [Compound 1-13]
>10

Supply reported Relative Selectivity versus PI3Kalpha belonging to this molecule: CCC(=O)N1CC[C@H](Oc2ncnc3c2nc(-c2cnc(OC)c(F)c2)n3C)C1 [Compound 3-34]
>10

Let me know recorded Relative Selectivity versus PI3Kalpha for CCC(=O)N1CC[C@H](Oc2ncnc3c2nc(-c2cnn(C(C)(C)C)c2)n3C)C1 [Compound 3-16] , thanks.
>10

Dear colleague, please send me the reported Relative Selectivity versus PI3Kalpha for CCn1c(-c2cnc(C)nc2)nc2c(O[C@H]3CCN(C(=O)N4CCC(F)(F)C4)C3)ncnc21 [Compound 5-26] when you can.
>10

Give the measured Relative Selectivity versus PI3Kalpha for CCn1c(-c2ccc(OC(F)F)nc2)nc2c(O[C@H]3CCN(C(=O)OC(C)(C)C)C3)ncnc21 [Compound 1-51]
>10

Report Relative Selectivity versus PI3Kalpha, nothing else, for this molecule: CCn1c(-c2cnc(C)nc2)nc2c(O[C@H]3CCN(c4cncnc4)C3)ncnc21 [Compound 7-23]
>10

Report Relative Selectivity versus PI3Kalpha, nothing else, for this molecule: CCn1ncc(-c2nc3c(O[C@H]4CCNC4)ncnc3n2C)c1C [Compound 1-2]
>5

Tell us which Relative Selectivity versus PI3Kalpha value is on record for CCn1c(-c2cnc(C)nc2)nc2c(O[C@H]3CCN(C(=O)C4CC4CO)C3)ncnc21 (single isomer, unassigned) [Compound 2-131]
>10

Please supply the value of reported Relative Selectivity versus PI3Kalpha for the item CCC(=O)N1CC[C@H](Oc2ncnc3c2nc(-c2cnc(OC)c(C)c2)n3CC)C1 [Compound 2-89]
>10

Check the records and state Relative Selectivity versus PI3Kalpha for CCn1c(-c2cnc(OC)c(F)c2)nc2c(O[C@H]3CCN(C(=O)c4cncn4C)C3)ncnc21 [Compound 3-58]
>10

Specify reported Relative Selectivity versus PI3Kalpha for the molecule shown: CCn1ncc(-c2nc3c(O[C@H]4CCN(C(=O)c5noc(C(C)(C)O)n5)C4)ncnc3n2C)c1C [Compound 2-50]
8

Query Relative Selectivity versus PI3Kalpha for CCC(=O)N1CC[C@H](Sc2ncnc3c2nc(-c2cnn(CC)c2C)n3C)C1 [Compound 10-4]
>10

Look up Relative Selectivity versus PI3Kalpha of Cc1n[nH]c2ncc(-c3nc4c(O[C@H]5CCN(C(=O)OC(C)(C)C)C5)ncnc4n3C)cc12 [Compound 1-33] and report it.
>10

----------
Biological target: PI3K-alpha (Homo sapiens (Human), UniProt P42336)
Assay: HTRF PI3K biochemical assay, alpha isoform
Details: ratio PI3K-alpha IC50 value/PI3K-delta IC50 value
Description: HTRF PI3K Biochemical Assay to Measure Intrinsic Potency of Compound Inhibitors The PI3-Kinase biochemical assays were developed to measure the intrinsic potency and compound dependent inhibition of the alpha, beta, delta, and gamma PI3K isoform enzymes. […] In the absence of PIP3, an HTRF (Homogeneous Time-Resolved Fluorescence energy transfer) complex is formed consisting of europium (Eu)-labeled anti-GST, GST tagged GRP1-PH domain, biotin-PIP3 and streptavidin conjugated APC. […]
observation-type: Relative Selectivity versus PI3Kalpha

Tell me Relative Selectivity versus PI3Kalpha reported for CCn1ncc(-c2nc3c(O[C@H]4CCN(C(=O)c5nc(C)oc5C)C4)ncnc3n2C)c1C
>10

Identify measured Relative Selectivity versus PI3Kalpha corresponding to CCC(=O)N1CC[C@H](Oc2ncnc3c2nc(C2CC2)n3C)C1
>10

Supply recorded Relative Selectivity versus PI3Kalpha for CCn1ncc(-c2nc3c(O[C@H]4CCN(C(=O)c5cncn5C)C4)ncnc3n2C)c1C here.
>10

Hello, please tell me recorded Relative Selectivity versus PI3Kalpha for this one: CCn1ncc(-c2nc3c(O[C@H]4CCN(C(=O)c5coc(C)n5)C4)ncnc3n2C)c1C
>10

Provide only the value of recorded Relative Selectivity versus PI3Kalpha for CCn1c(-c2cnc3[nH]ccc3c2)nc2c(O[C@H]3CCN(C(=O)C4CC4)C3)ncnc21
>10

In one line, give reported Relative Selectivity versus PI3Kalpha of the entry CCn1c(-c2cnc(C)nc2)nc2c(O[C@H]3CCN(C(=O)[C@@H](N)C(C)C)C3)ncnc21 .
>10

For the compound CCn1c(-c2cnc(C)nc2)nc2c(O[C@H]3CCN(S(=O)(=O)CC)C3)ncnc21 , report Relative Selectivity versus PI3Kalpha.
>10

Indicate its recorded Relative Selectivity versus PI3Kalpha; the compound in question is CCn1ncc(-c2nc3c(O[C@H]4CCN(c5cc(C(F)(F)F)ccn5)C4)ncnc3n2C)c1C
>10
